pKi: −log10 of the molar value.
pKi tested on UniProt P25103: recorded values
measure name: pKi

[[record]]
smiles_string = "CN(C(=O)C(C)(C)c1cc(C(F)(F)F)cc(C(F)(F)F)c1)c1cnc(N2CC[C@H](O)C2)cc1-c1ccccc1Cl"
readout_value = 9.07


a = CN(C(=O)C(C)(C)c1cc(C(F)(F)F)cc(C(F)(F)F)c1)c1cnc(N(CCO)CCO)cc1-c1ccccc1Cl
b = CCCN(CCO)c1cc(-c2ccccc2Cl)c(N(C)C(=O)C(C)(C)c2cc(C(F)(F)F)cc(C(F)(F)F)c2)cn1
## Input For the two items a and b , which reports the higher pKi value? Write down the label attached to your selection.
## Output a
(a: 8.94, b: 8.65)

----------
- target or system: Substance-P receptor (Homo sapiens, UniProt P25103)
- Sequence (P25103 whole entry): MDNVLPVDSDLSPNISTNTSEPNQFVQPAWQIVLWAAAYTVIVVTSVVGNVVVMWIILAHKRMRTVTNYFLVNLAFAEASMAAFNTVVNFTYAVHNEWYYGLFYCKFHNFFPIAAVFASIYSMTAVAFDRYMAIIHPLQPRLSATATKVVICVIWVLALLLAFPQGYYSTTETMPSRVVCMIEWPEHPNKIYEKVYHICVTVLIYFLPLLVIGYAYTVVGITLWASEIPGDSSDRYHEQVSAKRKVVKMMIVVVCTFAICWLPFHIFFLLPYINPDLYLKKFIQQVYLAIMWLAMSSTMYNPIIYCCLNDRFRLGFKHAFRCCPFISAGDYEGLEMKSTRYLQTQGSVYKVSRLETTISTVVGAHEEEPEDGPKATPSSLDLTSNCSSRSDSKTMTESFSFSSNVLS
measure name: Ki (nM)

[[record]]
smiles_string = "CN(C(=O)C(C)(C)c1cc(C(F)(F)F)cc(C(F)(F)F)c1)c1cnc(N2CC[C@@H](O)C2)cc1-c1ccccc1Cl"
readout_value = 2.62

[[record]]
smiles_string = "CN(C(=O)C(C)(C)c1cc(C(F)(F)F)cc(C(F)(F)F)c1)c1cnc(N(CCO)CCCO)cc1-c1ccccc1Cl"
readout_value = 1.38

[[record]]
smiles_string = "COC[C@@H]1C[C@@H](OC)CN1c1cc(-c2ccccc2Cl)c(N(C)C(=O)C(C)(C)c2cc(C(F)(F)F)cc(C(F)(F)F)c2)cn1"
readout_value = 0.91

[[record]]
smiles_string = "CN(C(=O)C(C)(C)c1cc(C(F)(F)F)cc(C(F)(F)F)c1)c1cnc(NCCO)cc1-c1ccccc1Cl"
readout_value = 1.12


I = CN(C(=O)C(C)(C)c1cc(C(F)(F)F)cc(C(F)(F)F)c1)c1cnc(N2CCC[C@H]2CO)cc1-c1ccccc1Cl
II = COCCNc1cc(-c2ccccc2Cl)c(N(C)C(=O)C(C)(C)c2cc(C(F)(F)F)cc(C(F)(F)F)c2)cn1
III = CN(C(=O)C(C)(C)c1cc(C(F)(F)F)cc(C(F)(F)F)c1)c1cnc(N2CC[C@H](O)[C@H]2CO)cc1-c1ccccc1Cl
## Input Sort the 3 compounds by Ki; largest first, smallest last. Give the labels in the order requested.
## Output II, III, I

----------
Ki tested on Neuromedin-K receptor (Homo sapiens, UniProt P29371): recorded values
measure name: Ki (nM)

Here are 2 molecules together with their reported answers.
[[record]]
smiles_string = "CN(C(=O)C(C)(C)c1cc(C(F)(F)F)cc(C(F)(F)F)c1)c1cnc(N2CCCC[C@@H]2CO)cc1-c1ccccc1Cl"
measure_name = "Ki"
readout_value = 29.7

[[record]]
smiles_string = "CN(C(=O)C(C)(C)c1cc(C(F)(F)F)cc(C(F)(F)F)c1)c1cnc(N2C[C@H](O)C[C@H]2CO)cc1-c1ccccc1Cl"
measure_name = "Ki"
readout_value = 1.12


1 = CCCN(CCO)c1cc(-c2ccccc2Cl)c(N(C)C(=O)C(C)(C)c2cc(C(F)(F)F)cc(C(F)(F)F)c2)cn1
2 = COCCNc1cc(-c2ccccc2Cl)c(N(C)C(=O)C(C)(C)c2cc(C(F)(F)F)cc(C(F)(F)F)c2)cn1
## Input For the two items 1 and 2 , which reports the higher Ki value? Write down the label attached to your selection.
## Output 2
(2: 93.3 nM, 1: 5.4 nM)

----------
- target or system: Neuromedin-K receptor (Homo sapiens, UniProt P29371)
- Sequence (P29371 whole entry): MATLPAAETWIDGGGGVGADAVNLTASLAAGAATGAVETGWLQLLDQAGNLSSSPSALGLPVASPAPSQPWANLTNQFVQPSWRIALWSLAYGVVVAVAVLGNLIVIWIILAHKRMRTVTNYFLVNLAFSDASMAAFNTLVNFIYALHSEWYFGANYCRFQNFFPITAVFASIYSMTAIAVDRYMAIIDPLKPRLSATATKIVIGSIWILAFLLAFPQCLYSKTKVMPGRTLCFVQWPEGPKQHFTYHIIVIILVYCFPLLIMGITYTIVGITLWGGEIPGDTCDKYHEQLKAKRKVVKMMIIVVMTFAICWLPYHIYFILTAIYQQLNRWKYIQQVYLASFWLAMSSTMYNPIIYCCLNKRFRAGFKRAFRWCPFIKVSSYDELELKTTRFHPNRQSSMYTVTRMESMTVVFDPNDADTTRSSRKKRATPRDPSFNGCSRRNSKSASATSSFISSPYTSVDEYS
measure name: Ki (nM)

[[record]]
smiles_string = "CN(C(=O)C(C)(C)c1cc(C(F)(F)F)cc(C(F)(F)F)c1)c1cnc(N2CC[C@H](O)C2)cc1-c1ccccc1Cl"
u = "nM"
readout_value = 8.38

[[record]]
smiles_string = "CN(C(=O)C(C)(C)c1cc(C(F)(F)F)cc(C(F)(F)F)c1)c1cnc(N2CCC[C@H]2CO)cc1-c1ccccc1Cl"
u = "nM"
readout_value = 0.74


1 = CN(CCO)c1cc(-c2ccccc2Cl)c(N(C)C(=O)C(C)(C)c2cc(C(F)(F)F)cc(C(F)(F)F)c2)cn1
2 = CN(C(=O)C(C)(C)c1cc(C(F)(F)F)cc(C(F)(F)F)c1)c1cnc(N(CCO)CCCO)cc1-c1ccccc1Cl
## Input For the two items 1 and 2 , which reports the higher Ki value? Write down the label attached to your selection.
## Output 1
